Values from patent US20230365589A1

Measured on: DYRK1A (Homo sapiens)
Construct: purchased Carna Biosciences, Inc. 04-130
Protocol notes: Inhibition test on activity of DYRK family, mobility shift assay (MSA): DYRK1A
Type: biochemical
Experimental setup: read-out: Inhibitory activity DYRK 1A
Metric: IC50

Illustrative cases are given below, each with its answer.
>  <Compound>
O=C1N[C@@H]2CCN(C3CC3)C[C@@H]2N1c1nc2c3c(ccc2s1)OCC3 (single isomer, unassigned)

>  <IC50>
≥ 1000 nM

$$$$
>  <Compound>
C#CCN1CC[C@H]2NC(=O)N(c3nc4c5c(ccc4s3)OCC5)[C@H]2C1 (single isomer, unassigned)

>  <IC50>
100 to 1000 nM

$$$$
>  <Compound>
N#CCN1CC[C@H]2NC(=O)N(c3nc4c5c(ccc4s3)OCC5)[C@H]2C1 (single isomer, unassigned)

>  <IC50>
100 to 1000 nM

$$$$
>  <Compound>
C[C@H]1C[C@@H]2[C@H](CN1C)NC(=O)N2c1nc2c3c(ccc2s1)OCC3

>  <IC50>
10 to 100 nM

$$$$
>  <Compound>
O=C1N[C@H]2CCN(C3CC3)C[C@H]2N1c1nc2c3c(ccc2s1)OCC3 (single isomer, unassigned) [Example 110]

>  <IC50>
< 10 nM

$$$$

Any idea what IC50 came out for C[C@@H]1NC(=O)N(c2nc3c4c(ccc3s2)OCC4)[C@@H]1CN1CC(F)C1 on DYRK1A (Homo sapiens)?
10 to 100 nM

Next entry: C[C@@H]1NC(=O)N(c2nc3c4c(ccc3s2)OCC4)[C@@H]1CN1CC[C@H](F)C1
10 to 100 nM

Next entry: C[C@H]1[C@@H]2[C@H](CCN1C)NC(=O)N2c1nc2c3c(ccc2s1)OCC3
100 to 1000 nM

Next entry: O=C1N[C@H]2COC[C@H]2N1c1nc2c3c(ccc2s1)OCC3
10 to 100 nM

Next entry: N#CCN1CC[C@@H]2NC(=O)N(c3nc4c5c(ccc4s3)OCC5)[C@@H]2C1 (racemic) [Example 100]
< 10 nM

Next entry: C[C@@H]1C[C@@H]2NC(=O)N(c3nc4c5c(ccc4s3)OCC5)[C@@H]2CN1C
100 to 1000 nM

Next entry: C#CCN1CCC[C@@H]2NC(=O)N(c3nc4c5c(ccc4s3)OCC5)[C@@H]2C1 (racemic)
10 to 100 nM

Next entry: C[C@@H]1NC(=O)N(c2nc3c4c(ccc3s2)OCC4)[C@@H]1CN1CCC(F)(F)C1
10 to 100 nM

Next entry: O=C1N[C@H]2CCN(CC(F)F)C[C@H]2N1c1nc2c3c(ccc2s1)OCC3 (racemic)
10 to 100 nM

Next entry: O=C1N[C@H]2COCC[C@H]2N1c1nc2c3c(ccc2s1)OCC3 (racemic) [Example 121]
10 to 100 nM

Next entry: O=C1N[C@@H]2COCC[C@H]2N1c1nc2c3c(ccc2s1)OCC3
100 to 1000 nM
